- ASSAYED TARGET: T1, TIGIT on the engineered cell lines of the TIGIT/CD155 Blockade Bioassay (J2201, Promega) (UniProt Q495A1 22-244, limits assumed)
- T1 sequence (looked up): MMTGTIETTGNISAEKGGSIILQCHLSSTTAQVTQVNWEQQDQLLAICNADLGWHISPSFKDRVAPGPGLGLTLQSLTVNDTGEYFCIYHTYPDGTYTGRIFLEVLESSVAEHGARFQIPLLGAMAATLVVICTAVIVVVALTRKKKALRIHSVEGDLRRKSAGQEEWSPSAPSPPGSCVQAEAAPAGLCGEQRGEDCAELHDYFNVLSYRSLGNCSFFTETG
- MEASUREMENT DESCRIPTION: cell-based or functional assay
OUTCOME MEASURE: Blockade EC50 (nM)

1. SCT-Ga249 (antibody, V domains shown, Murine variable domains) VH: QVQLQQSGGELMKPGASVKISCKATGYTFSNYWIEWVKQRPGHGLEWIGEILPGSGSSYYNEKFKGRATFTADKSSNTAYMQLSSLTSEDSAVYYCARQKYGNFYYFDFWGQGTTLTVSS VL: AIQMTQTTSSLSASLGDRVTISCSASQGIGNYLNWYQQKPDGTVKLLIYYTSSLHSGVPSRFSGSGSGTDYSLTISDLEPEDIATYYCHQYSKLPYTFGGGTKLEIK	28.1
